Read-out: Vascular cell adhesion molecule 1 (VCAM1), VCAM1 (gene 7412)
protocol: BSK_hDFCGF_VCAM1: BioMAP Diversity Plus: hDFCGF Assay for Vascular cell adhesion molecule 1 (VCAM1) Biomarker Activity (AID 2283065)
measurement_conditions: primary human foreskin fibroblasts; actives raise or lower the signal
Active and inactive are the calls of the source. How the source made its calls: active means hit-call score of the fitted dose curve at least 0.9, where 1 is the maximum; inactive means score below 0.9.
Outcomes: active, inactive

> print(dat)
                                    molecule  assigned.label
 1  CC(C)(COCC1CO1)COCC1CO1 (stereo not drawn)        inactive
 2  CCCCN(CCCC)C(=S)[S-].CCCCN(CCCC)C(=S)[S-].[Ni+2]        inactive
 3  O=c1oc2ccccc2c(O)c1C(CC(O)c1ccc(-c2ccc(Br)cc2)cc1)c1ccccc1 (stereo not drawn)          active
 4                 c1ccc2sc(SNC3CCCCC3)nc2c1        inactive
 5  C#CCOC(=O)/C=C(C)/C=C/CC(C)CCCC(C)C (stereo not drawn)          active
 6                       CCOP(=O)(OCC)SCCSCC        inactive
 7                O=[N+]([O-])c1cccc2ccccc12        inactive
 8                         CC(C)(C)c1ccccc1O        inactive
 9  CCOC(=O)CCN(SN(C)C(=O)Oc1cccc2c1OC(C)(C)C2)C(C)C          active
10          CCOP(=S)(OCC)SCS(=O)(=O)C(C)(C)C        inactive
11  CCOC(=O)C(SP(=S)(OC)OC)c1ccccc1 (stereo not drawn)          active
12  CC(C)O.CC(C)O.OCCN(CCO)CCO.OCCN(CCO)CCO.[Ti]        inactive
13                      Oc1cccc(-c2ccccc2)c1          active
